Please provide measured pKd for the entries that follow.
Molecular target: T1, SNTA1, Q13424
T1 sequence (Q13424 82-180, limits assumed, looked up): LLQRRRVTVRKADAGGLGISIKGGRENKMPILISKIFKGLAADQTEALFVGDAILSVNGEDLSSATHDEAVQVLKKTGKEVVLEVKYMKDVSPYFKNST
Experiment: holdup assay
Set-up: key: below the threshold = too weak to quantify, mostly under pKd 3.1 to 4
Settings: plain residues with an end cap or a label only (N-terminal biotin on a linker: ado-ado)
The answer should be a number; do not append a unit.

Asked: Please indicate pKd recorded for PLPPEEESWV [GAS2L2, Q8NHY3]
Given back: 4.6

Asked: Please indicate pKd recorded for LPPPESESKV [KCNJ9, Q92806]
Given back: 3.99

Asked: Please indicate pKd recorded for TKDKVQETQI [LRRC4, Q9HBW1]
Given back: 4.88

Asked: Please indicate pKd recorded for WAKEKQHTRL [SLC17A1, Q14916]
Given back: 3.77

Asked: Please indicate pKd recorded for DYSNLRETDI [ADRA1D, P25100]
Given back: 5.71

Just for reference, paper PMC9482650 is where these values come from.
